- assay protocol: Tmax in Swiss mouse plasma at 2 mg/kg, iv by LC/MS/MS analysis
- Format: ADME, organism-based
endpoint label: Tmax (min)

> print(dat)
                                   molecule  numeric.result
1  COC(=O)c1cc2cc(NCc3cc(NC(=O)c4cc(-n5cnc(C)c5)cc(C(F)(F)F)c4)ccc3C)cnc2[nH]1              10

====

- assay protocol: Oral bioavailability in Swiss mouse plasma at 20 mg/kg by LC/MS/MS analysis
- Type: ADME, organism-based
endpoint label: bioavailability (%)

> print(dat)
                                   molecule  numeric.result
1  COC(=O)c1cc2cc(NCc3cc(NC(=O)c4cc(-n5cnc(C)c5)cc(C(F)(F)F)c4)ccc3C)cnc2[nH]1              47
